test-target: mouse VISTA (mVISTA) (Mus musculus, UniProt Q9D659)
Construct: expressed in transfected cells; host or cells: Human embryonic kidney 293T cells
Sequence (Q9D659 33-308): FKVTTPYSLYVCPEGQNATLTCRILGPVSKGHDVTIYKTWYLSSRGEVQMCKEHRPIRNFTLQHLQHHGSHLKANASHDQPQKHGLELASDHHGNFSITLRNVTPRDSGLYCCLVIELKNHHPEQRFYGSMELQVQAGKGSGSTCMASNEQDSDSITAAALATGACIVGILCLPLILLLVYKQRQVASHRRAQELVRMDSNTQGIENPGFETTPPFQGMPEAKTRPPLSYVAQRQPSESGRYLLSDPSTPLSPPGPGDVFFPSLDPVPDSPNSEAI
protocol-text: Cell-Based Binding High-Content Assay For mVISTA (HC CBA mVISTA)
condition-details: 293T cells expressing mouse VISTA; competition with biotinylated peptide (2 nM); read-out: HC CBA mVISTA IC50
Positions of bridges follow the written chain, without caps; N, C: chain ends. Non-standard residues stand in square brackets, D forms with d. Residues, ends and D or L forms follow the SMILES beside them. Ahp(2) = CCCCC[C@H](N)C(=O)O; NHexGly = CCCCCCNCC(=O)O; Nle = CCCC[C@H](N)C(=O)O
property: pIC50
// pIC50: -log10(molar conc.)

Prompt line: What value of measured pIC50 is listed for CCCCCCN1CC(=O)N[C@@H](Cc2ccc(O)cc2)C(=O)N[C@@H](CCCC)C(=O)N[C@@H](CC(=O)O)C(=O)N[C@@H](CCCNC(=N)N)C(=O)N[C@@H](CC(C)C)C(=O)N[C@@H](CCCCC)C(=O)N2CCC[C@H]2C(=O)N[C@@H](C(C)C)C(=O)N[C@@H](CC(N)=O)C(=O)N[C@H](C(=O)NCC(=O)O)CSCC(=O)N[C@@H](Cc2ccccc2)C(=O)N[C@@H](Cc2ccc(O)cc2)C(=O)N[C@@H](CC(=O)O)C1=O [Example 1029] ({CH2CO}-FYD[NHexGly]Y[Nle]DRL[Ahp(2)]PVNCG-OH; thioether N-14) ?
Response line: 8.96
